The origin of these recorded values is paper PMC4593063.

% hydrated (19F NMR) by entry:
- test name: 19F NMR hydration study in aqueous solution
- Type: physicochemical
- details: pH 7.7, 24 h
measured quantity: % hydrated (19F NMR) (%)

1) CC(C)Cn1cc(C(=O)C(F)F)cn1; 22
2) CCC(CC)n1cc(C(=O)C(F)(F)F)cn1; 67
3) CC(C)(C)c1cccc(C(=O)C(F)(F)F)c1; 88
